# System: Plasmodium berghei
# Assay notes: Screen against P. berghei liver stage (PbLuc), transformed with Luciferase, at 10uM
# Type: functional, HepG2
# Protocol conditions: tested at 10 uM
The campaign covered roughly 69,000 compounds. About 8,600 (12%) showed an effect of 50% or more. The entries come from a sample that favours strong results as a whole.
Measured endpoint: INHIBITION (%)
Just the number in %, nothing appended.

Fill in INHIBITION for record CN(Cc1nnc2n1CCC2)C(=O)c1ccc2c(c1)OCCO2
-2.53

Identify the reported INHIBITION for the following entry. c1cnc(N2CCCC(c3cncc(-n4ccnc4)n3)C2)nc1 (stereo not drawn)
15.9

# return recorded INHIBITION for entry Cc1noc(-c2cccnc2N(C)Cc2cc(C)on2)n1
50.8

Fill in reported INHIBITION for this entry: COCC(=O)N1CCCC(c2cccc(-n3ccnc3)n2)C1 (stereo not drawn)
36.7

For the molecule CCn1c(C2CCNCC2)nn(CCn2cncn2)c1=O , give its reported INHIBITION.
32

Item Cn1nccc1-c1cc(C2CCN(S(C)(=O)=O)CC2)ccn1 : provide INHIBITION
42.4

Give INHIBITION for the following molecule: Cc1nccn1-c1cccc(C2CCCN(C3CCCCC3)C2)n1 (stereo not drawn)
11.4

Please give measured INHIBITION of the following entry: COc1ccccc1OCC(=O)NCC(C)(O)C1CC1 (stereo not drawn)
-3.51

For the molecule COCCN1CCO[C@@H]2CN(C(=O)COc3ccc(C)cc3)C[C@@H]2C1 , report INHIBITION.
37.9

Read the entry CN(Cc1ccncc1)C(=O)[C@H]1CSCN1C(=O)OC(C)(C)C and write its reported INHIBITION.
-12.1

Name the recorded INHIBITION of the item CN(CCCc1cnn(C)c1)C(=O)C1CCC(=O)N(C2CCCC2)C1 (stereo not drawn) in your answer.
-7.85

Specify INHIBITION for CCOCCn1c(=O)[nH]c2cc(C(=O)N(C)Cc3ccno3)ccc21 and stop.
8.35

Fill in INHIBITION for record O=C(CC1CC1)N[C@@H]1CN(C(=O)c2cccs2)C[C@@H]2CCCO[C@@H]21
53.9

----------
# System: Plasmodium berghei
# Assay notes: Screen against P. berghei liver stage (PbLuc), transformed with Luciferase, at 10uM
# Type: functional, HepG2
# Protocol conditions: tested at 10 uM
The whole screen tested about 69,000 compounds, of which about 8,600 (12%) showed an effect of 50% or more. The list comes from a sample in which strong results are over-represented; it also holds close analogues and randomly drawn compounds.
Measured endpoint: INHIBITION (%)
Give just the number in %; leave the unit off.

Example entries and their recorded answers appear below.
Cc1n[nH]c(C)c1NC(=O)c1cccc(OCC(F)(F)F)n1 | -14.9
Cc1nc(C2CCCN(S(C)(=O)=O)C2)sc1Br (configuration not stated) | -7.66
Cc1noc(C)c1-c1cccc(C2CCNCC2)n1 | 5.11
CC(C)N1CCC(C(=O)N2CCC(C(O)c3nccn3C)CC2)CC1 (configuration not stated) | 9.41

Fill in INHIBITION for record CCCn1ncc(CN(Cc2ccsc2)Cc2ccco2)c1C
13

Input Cc1cccc(-n2ncc(C(=O)N3CCn4c(C)nnc4C3)c2C)c1 , output reported INHIBITION.
60.6

Indicate its recorded INHIBITION; the compound in question is CCOCCCC(=O)Nc1cc(C(N)=O)ccc1N1CCCCC1
72.1

State its INHIBITION for this compound: COCCCC(=O)Nc1cccnc1N1CCCCC1
35.1

Answer with reported INHIBITION of COc1ccccc1C(C)(C)NC(=O)NCCC(=O)NC1CCCC1
19.7
